Catalogue of binders with associated pEC50
molecular target: T1, cynomolgus monkey OX40 protein (Novoprotein, #CB17) (cynomolgus monkey); assay: ELISA, coated cyno OX40 protein
T1 construct: Bought recombinant protein; also called cyno OX40
pEC50: −log10 of the molar value.
measured parameter: pEC50

1) PR002064 (antibody, human IgG1, V domains shown, no light chain; also called anti-OX40 HCAb antibody) VH: EVQLVETGGGLVQPGGSLRLSCAASGFTFSSYAMSWVRQAPGKGQEWVSAISGSGGSTFYADSVRGRFTISRDNSKNTLYLQMSSLRAEDTAVYYCANGMTGTTDVDYWGQGTLVTVSS = 9.66
2) PR002073 (antibody, human IgG1, V domains shown, no light chain; also called anti-OX40 HCAb antibody) VH: EVQLVESGGGLVQPGGSLRLSCAASGFTFSSYAMSWVRQAPGKGLEWVSAISGGSGSTFYADSVRGRFTISRDNSKNTLYLQMNSLRAEDTAVYYCADGVTGTDFDFWGQGTLVTVSS = 9.84

Values were extracted from patent US20230295324A1.
